test system: HepG2; test: cell viability relative to DMSO; higher = less toxic; conditions: 72 h; 10000 nM
result-type: cell viability (%)

INSERT INTO measurements (compound, system_under_test, result_type, unit_of_measurement, number) VALUES
  ('O=C(O)CCc1ccc(NCc2cccc3c2CCCN3CCOc2ccccc2)cc1F', 'HepG2', 'cell viability', '%', 95),
  ('CC(=O)N(C)c1cc(-c2ccnc3c(C(=O)c4cccs4)cnn23)ccc1F [lorediplon]', 'HepG2', 'cell viability', '%', 80),
  ('NS(=O)(=O)Cc1noc2ccccc12 [zonisamide]', 'HepG2', 'cell viability', '%', 102),
  ('CC(C)(C)C(=O)OCOC(=O)[C@@H]1N2C(=O)[C@@H](/N=C/N3CCCCCC3)[C@H]2SC1(C)C [pivmecillinam]', 'HepG2', 'cell viability', '%', 91.9),
  ('C[C@@]1(CO)[C@H](O)CC[C@@]2(C)[C@H]1CC[C@H]1C[C@@H]3C[C@@]12CC[C@]3(O)CO [aphidicolin]', 'HepG2', 'cell viability', '%', 22.5),
  ('O=C(/C=C/c1cccnc1)c1ccncc1 [3PO]', 'HepG2', 'cell viability', '%', 72.7),
  ('COc1ncc2cc(C(=O)Nc3cc(C(=O)NCc4cccc(Cl)c4)ccc3Cl)c(=O)[nH]c2n1 [TC-S-7004]', 'HepG2', 'cell viability', '%', 101),
  ('CCC[S+]([O-])c1ccc2[nH]c(NC(=O)OC)nc2c1 (stereo not drawn) [albendazole-oxide]', 'HepG2', 'cell viability', '%', 83.7),
  ('CCC(C)n1ncn(-c2ccc(N3CCN(c4ccc(OCC5COC(Cn6cncn6)(c6ccc(Cl)cc6Cl)O5)cc4)CC3)cc2)c1=O (stereo not drawn) [itraconazole]', 'HepG2', 'cell viability', '%', 97.6),
  ('COc1ccc(-c2ccc3ncc4c(c3c2)n(-c2ccc(N3CCNCC3)c(C(F)(F)F)c2)c(=O)n4C)cn1 [BGT226]', 'HepG2', 'cell viability', '%', -0.3),
  ('CC/C=C\C/C=C\C/C=C\C/C=C\C/C=C\C/C=C\CCC(=O)OCC [doconexent-ethyl-ester]', 'HepG2', 'cell viability', '%', 87.2),
  ('OCCc1ccc(OCCn2ccnc2)cc1 [MR-948]', 'HepG2', 'cell viability', '%', 106),
  ('O[C@@H](CN1CCC(Cc2ccc(F)cc2)CC1)c1ccc(Cl)cc1 (racemic) [eliprodil]', 'HepG2', 'cell viability', '%', 108),
  ('Cc1ccc(NC(=O)c2ccc(CN3CC[C@H](N(C)C)C3)c(C(F)(F)F)c2)cc1Nc1nccc(-c2cncnc2)n1 [bafetinib]', 'HepG2', 'cell viability', '%', 19.5),
  ('CN(C)C(=N)NC(=N)N [metformin]', 'HepG2', 'cell viability', '%', 93),
  ('Cc1cc(Nc2cc(N3CCN(C)CC3)nc(Sc3ccc(NC(=O)C4CC4)cc3)n2)n[nH]1 [tozasertib]', 'HepG2', 'cell viability', '%', 36.4),
  ('COc1cccc(C=NCCN=Cc2cccc(OC)c2[O-])c1[O-].[Cl-].[Mn+3] [EUK-134]', 'HepG2', 'cell viability', '%', 72.3),
  ('NCCc1c[nH]cn1 [histamine]', 'HepG2', 'cell viability', '%', 97.5);

====

Measured SARS-CoV-2 infection rate, listed per entry.
test system: A549-ACE2 infected with SARS-CoV-2; test: SARS-CoV-2 infection rate relative to DMSO; higher = more infection; details: 0.3 µM; 24 h
result-type: SARS-CoV-2 infection rate (%)

INSERT INTO assay_data (chemical_smiles, unit_of_measurement, number) VALUES
  ('C[C@@H]1CN(CC(=O)Nc2ccc3c(c2)Cc2cccc(-c4cc(=O)cc(N5CCOCC5)o4)c2S3)C[C@H](C)O1', '%', 108),
  ('COc1cccc([C@@H](C)NCCCc2ccccc2Cl)c1', '%', 111),
  ('CC(C)(C)c1ccc(-c2nc3ccccc3[nH]2)cc1', '%', 99),
  ('Cc1cc(CN)cc(C)c1NC(=O)c1ccc(-c2cc(Cl)ccc2Cl)o1', '%', 101),
  ('CC1(N2CCC(n3c([C@@H]4CCCNC4)nc4ccccc43)CC2)CCCCCCC1', '%', 89);

====

test system: Calu-3; assay: relative viability EC50 (midpoint between 100% and the lowest measured viability); higher = less toxic; conditions: 72 h
Measured relative viability EC50, listed per entry.
result-type: relative viability EC50

INSERT INTO measurements (molecule, system_under_test, result) VALUES
  ('NCCS(=O)(=O)O', 'Calu-3', '> 10 µM'),
  ('OC(CCN1CCCCC1)(c1ccccc1)C1CCCCC1 (stereo not drawn)', 'Calu-3', '> 10 µM'),
  ('C[C@H](CCC(=O)O)[C@H]1CC[C@H]2[C@@H]3[C@@H](O)C[C@@H]4C[C@H](O)CC[C@]4(C)[C@H]3CC[C@]12C', 'Calu-3', '> 10 µM'),
  ('C[n+]1cccc(C(=O)[O-])c1', 'Calu-3', '> 10 µM'),
  ('CN1CCN(C(=O)C2C(C(=O)O)[C@H]3CC[C@@H]2O3)CC1 (stereo partly drawn)', 'Calu-3', '> 10 µM'),
  ('Cc1c(Cc2ccc3ccccc3n2)c2cc(F)ccc2n1CC(=O)O', 'Calu-3', '> 10 µM'),
  ('O=C1c2cccc(O)c2C(=O)c2c(O)cc(CO)cc21', 'Calu-3', '> 10 µM'),
  ('Cn1cc(C2=C(c3cn(C4CCN(Cc5ccccn5)CC4)c4ccccc34)C(=O)NC2=O)c2ccccc21', 'Calu-3', '> 10 µM'),
  ('Nc1ncc2c(n1)CC(c1ccco1)CC2=O (stereo not drawn)', 'Calu-3', '> 10 µM'),
  ('CCN(CC)C(=O)c1ccc(C2=CC3(CCNCC3)Oc3cccc(O)c32)cc1', 'Calu-3', '> 10 µM'),
  ('CCCCc1nc(C)c(CC(=S)N(C)C)c(=O)n1Cc1ccc(-c2ccccc2-c2nnn[nH]2)cc1', 'Calu-3', '> 10 µM'),
  ('O=C(c1ccc(F)cc1)N1CCC[C@H](c2nc(-c3ccc(F)cc3)no2)C1', 'Calu-3', '> 10 µM'),
  ('O=C(Nc1ccccc1C(=O)Nc1ccc(CCO)cc1)c1ccc([N+](=O)[O-])cc1', 'Calu-3', '> 10 µM'),
  ('O=C(Nc1ccc(CN2CCOCC2)cc1)c1ccc(-c2cccc(Cl)c2)o1', 'Calu-3', '> 10 µM'),
  ('Fc1ccccc1CNCc1ccc(-c2ccnc3[nH]ccc23)cc1', 'Calu-3', '> 10 µM'),
  ('CCOc1c2c(c(OCC)c3ccccc13)C(=O)N(c1ccc(CC(=O)NS(=O)(=O)c3ccccc3)cc1)C2', 'Calu-3', '> 10 µM'),
  ('C[C@]12CCC(=O)C=C1C=C[C@@H]1[C@@H]2CC[C@@]2(C)[C@H]1CC[C@@]21CCC(=O)O1', 'Calu-3', '> 10 µM'),
  ('CC(C)C[C@H](NC(=O)N1CCCCCC1)C(=O)N[C@H](Cc1cn(C)c2ccccc12)C(=O)N[C@H](Cc1ccccn1)C(=O)O', 'Calu-3', '> 10 µM');

====

Measured cell viability, listed per entry.
tested on: Caco-2; assay: cell viability relative to DMSO; higher = less toxic; conditions: 72 h; 1000 nM
result-type: cell viability (%)

INSERT INTO results (molecule, number) VALUES
  ('O=C(O)CCc1ccc(NCc2cccc3c2CCCN3CCOc2ccccc2)cc1F', 106),
  ('N=C(N)SCCc1ccc(OCc2ccc([N+](=O)[O-])cc2)cc1', 97.2),
  ('CC(C)[C@H]1CC[C@H](C(=O)N[C@H](Cc2ccccc2)C(=O)O)CC1 [nateglinide]', 106),
  ('COc1ccc(/C=C/C(=O)Nc2ccccc2C(=O)O)cc1OC', 103),
  ('O=C1C[C@@]2(C(=O)N1)C(=O)N(Cc1ccc(Br)cc1F)C(=O)c1cccn12', 98.6),
  ('CCOc1cccc(NC(=O)c2ccc(N3CCCC3)c(C(F)(F)F)c2)c1', 92.7),
  ('C[C@H](CCC(=O)O)[C@H]1CC[C@H]2[C@@H]3[C@@H](O)C[C@@H]4C[C@H](O)CC[C@]4(C)[C@H]3CC[C@]12C', 94.9),
  ('CCC/N=C1\S/C(=C\c2ccc(OC[C@H](O)CO)c(Cl)c2)C(=O)N1c1ccccc1C', 99),
  ('O=C(/C=C/c1cccnc1)c1ccncc1', 92.3),
  ('CC(=O)N(C)c1cc(-c2ccnc3c(C(=O)c4cccs4)cnn23)ccc1F', 95.1),
  ('Cc1ccc(-c2nn(C(C)(C)C)c3ncnc(N)c23)cc1', 91.5),
  ('CN1C(=O)CN=C(c2ccccc2)c2cc(Cl)ccc21', 87.6),
  ('CC(C)=CCc1c(O)cc(O)c2c(=O)c(O)c(-c3ccc(C(F)(F)F)cc3)oc12', 95.8),
  ('NS(=O)(=O)Cc1noc2ccccc12 [zonisamide]', 96.3),
  ('COc1cc(OC)cc(N(CCNC(C)C)c2ccc3ncc(-c4cnn(C)c4)nc3c2)c1', 99.3),
  ('Cc1cc(N2CCN([C@@H]3CN[C@H](C(=O)N4CCSC4)C3)CC2)n(-c2ccccc2)n1', 101),
  ('C[C@@H](NC(=O)[C@@H](N)Cc1ccc(O)cc1)C(=O)NCC(=O)N(C)[C@@H](Cc1ccccc1)C(=O)N[C@H](CO)CC[S+](C)[O-] (stereo partly drawn)', 96.1),
  ('O=C(Nc1ccc(CN2CCOCC2)cc1)c1ccc(-c2cccc(Cl)c2)o1', 104);
